experiment: Volume of distribution in mouse at 1 mg/kg, iv; type: ADME, organism-based; conditions: in vivo
Test readout: Vd (L/kg)

Cc1cc(F)c(NC(=O)NCCC(C)(C)C)cc1-c1ccc2c(=O)n(C)ncc2c1    2.1
Cc1cc(F)c(NC(=O)c2cccc(C(C)(C)C#N)c2)cc1-c1cnc2c(=O)n(C)ncc2c1    1.7

---

molecular target: RAF proto-oncogene serine/threonine-protein kinase (Homo sapiens, UniProt P04049, Y340D/Y341D); assay: Inhibition of CRAF Y340D/Y341D mutant (unknown origin) assessed as using inactive phosphorylated MAP2K1 substrate preincubated for 30 mins measured after 90 mins by DELFIA assay
Sequence (P04049 whole entry Y340D/Y341D): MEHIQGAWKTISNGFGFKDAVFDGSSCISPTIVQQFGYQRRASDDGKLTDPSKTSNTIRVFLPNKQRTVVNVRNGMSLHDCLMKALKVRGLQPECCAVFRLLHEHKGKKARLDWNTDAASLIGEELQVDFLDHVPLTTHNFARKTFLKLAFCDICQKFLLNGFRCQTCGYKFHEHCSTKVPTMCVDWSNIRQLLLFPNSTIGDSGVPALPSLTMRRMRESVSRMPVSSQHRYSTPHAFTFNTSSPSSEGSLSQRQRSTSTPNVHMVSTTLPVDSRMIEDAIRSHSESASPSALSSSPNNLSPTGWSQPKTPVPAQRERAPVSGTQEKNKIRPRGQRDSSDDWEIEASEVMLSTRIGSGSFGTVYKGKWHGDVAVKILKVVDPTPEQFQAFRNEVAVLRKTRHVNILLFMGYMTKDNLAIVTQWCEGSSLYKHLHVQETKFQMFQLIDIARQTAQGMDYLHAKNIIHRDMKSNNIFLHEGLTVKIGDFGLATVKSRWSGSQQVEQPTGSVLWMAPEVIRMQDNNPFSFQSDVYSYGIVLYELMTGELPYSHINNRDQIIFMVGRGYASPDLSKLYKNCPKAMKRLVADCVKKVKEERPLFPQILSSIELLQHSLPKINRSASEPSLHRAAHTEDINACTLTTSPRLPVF
pKi: −log10 of the molar value.
Test readout: pKi

CNc1ncc2cc(-c3cc(NC(=O)NCCC(C)(C)C)c(F)cc3C)c(=O)n(C)c2n1    10.09
Cc1cc(F)c(NC(=O)c2cccc(C(C)(C)C#N)c2)cc1-c1cnc2c(=O)n(C)ncc2c1    10.21
Cc1cc(F)c(C(=O)NCCCC(C)(C)C)cc1-c1ccc2c(=O)n(C)ncc2c1    10.22

---

system: A549; test: Synergistic antiproliferative activity against human A549 cells harboring KRAS mutant assessed as reduction in cell viability in presence of 100 nM cobi-metinib; format: functional, cell-based
Test readout: IC50 (nM)

Cc1cc(F)c(NC(=O)NCCC(C)(C)C)cc1-c1ccc2cc(N)ncc2c1    148

a = Cc1cc(F)c(NC(=O)NCCC(C)(C)C)cc1Nc1ccc2ncn(C)c(=O)c2c1F
b = CNc1ncc2cc(-c3cc(NC(=O)NCCC(C)(C)C)c(F)cc3C)c(C)nc2n1
c = Cc1cc(F)c(NC(=O)NCCC(C)(C)C)cc1-c1ccc2c(=O)n(C)ncc2c1
Task field, ranking: reported IC50, descending order. Write the labels in rank order as requested.
a, c, b

1 = Cc1cc(F)c(NC(=O)c2cccc(C(C)(C)C#N)c2)cc1-c1ccc2c(=O)n(C)ncc2c1
2 = CNc1ncc2cc(-c3cc(NC(=O)NCCC(C)(C)C)c(F)cc3C)c(=O)n(C)c2n1
3 = Cc1cc(F)c(NC(=O)c2cccc(C(C)(C)C#N)c2)cc1-c1cnc2c(=O)n(C)ncc2c1
4 = Cc1cc(F)c(C(=O)NCCCC(C)(C)C)cc1-c1ccc2c(=O)n(C)ncc2c1
Please produce an ascending ranking of these compounds based on IC50. Please list the labels in the order you were asked to rank them.
2, 1, 3, 4
(2: 39.2 nM, 1: 138 nM, 3: 369 nM, 4: 1120 nM)

---

assay: Half life in mouse; type: ADME, organism-based; settings: in vivo
Test readout: half-life (h)

A = Cc1cc(F)c(NC(=O)c2cccc(C(C)(C)C#N)c2)cc1-c1cnc2c(=O)n(C)ncc2c1
B = Cc1cc(F)c(NC(=O)NCCC(C)(C)C)cc1-c1ccc2c(=O)n(C)ncc2c1
Kindly compare A with B and tell me which has the lower half-life figure. Your choice should be expressed through its label.
B

---

assay: Efflux ratio of permeability across basolateral to apical side over apical to basolateral side in MDCK cells; assay type: ADME, cell-based, Canis lupus familiaris; details: dog
Test readout: efflux ratio

1 = Cc1cc(F)c(NC(=O)c2cccc(C(C)(C)C#N)c2)cc1-c1cnc2c(=O)n(C)ncc2c1
2 = Cc1cc(F)c(NC(=O)NCCC(C)(C)C)cc1-c1ccc2c(=O)n(C)ncc2c1
Consider entries 1 and 2 . Which has the numerically lower efflux ratio? Bench note: the answer is the label of the chosen record.
2
